Data provenance: the supplement of paper PMC3545927

target_entity: furin, P09958;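 further: purified furin at 1:10 enzyme:substrate in 50 mM HEPES pH 7.5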
Sequence (P09958 whole entry): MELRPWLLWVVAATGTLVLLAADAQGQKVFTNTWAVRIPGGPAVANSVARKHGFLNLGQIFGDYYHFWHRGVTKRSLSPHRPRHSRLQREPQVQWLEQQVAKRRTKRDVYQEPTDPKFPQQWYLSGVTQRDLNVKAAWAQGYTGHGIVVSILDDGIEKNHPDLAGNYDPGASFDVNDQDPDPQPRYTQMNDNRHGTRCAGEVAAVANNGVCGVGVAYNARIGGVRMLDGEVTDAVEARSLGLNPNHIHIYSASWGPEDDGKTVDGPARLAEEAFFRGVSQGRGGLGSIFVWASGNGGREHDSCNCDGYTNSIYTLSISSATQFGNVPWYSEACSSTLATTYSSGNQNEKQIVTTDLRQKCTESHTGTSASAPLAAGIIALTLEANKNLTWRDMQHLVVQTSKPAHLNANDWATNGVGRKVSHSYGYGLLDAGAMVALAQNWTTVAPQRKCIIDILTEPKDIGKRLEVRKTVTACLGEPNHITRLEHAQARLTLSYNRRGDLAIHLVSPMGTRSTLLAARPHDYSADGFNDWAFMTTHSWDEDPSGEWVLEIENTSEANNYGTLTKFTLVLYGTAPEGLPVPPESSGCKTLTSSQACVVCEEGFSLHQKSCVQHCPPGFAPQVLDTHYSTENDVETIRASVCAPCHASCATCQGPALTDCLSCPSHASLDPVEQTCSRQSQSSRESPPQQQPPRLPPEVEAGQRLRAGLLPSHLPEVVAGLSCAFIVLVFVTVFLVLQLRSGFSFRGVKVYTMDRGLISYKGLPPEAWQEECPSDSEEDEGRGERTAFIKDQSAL
assay_name: furin cleavage Z-score vs untreated control; higher = more cleavage, active = 3.5 or more, inactive = 1 or less, 8 variable residues between constant flanks
test_settings: 15 min
The list shows a part of the results. The true hit rate is not given.
Below, each entry is listed with its recorded furin cleavage Z-score.
Respond using a number only.

What value of furin cleavage Z-score has been recorded for this entry: CARQRRGCFRAGNASASA [FS-2446]
2.53

What value of furin cleavage Z-score has been recorded for this entry: CAADVVCCSMAGNASASA [HC2103]
0.666

What value of furin cleavage Z-score has been recorded for this entry: CAVVCCSISYAGNASASA [HC2044]
-0.41

What value of furin cleavage Z-score has been recorded for this entry: CARQRREMVAAGNASASA [FS-2589]
5.77

What value of furin cleavage Z-score has been recorded for this entry: CALALLSCLTAGNASASA [HC250]
0.192

What value of furin cleavage Z-score has been recorded for this entry: CARQRRPTGPAGNASASA [FS-2511]
-0.922

What value of furin cleavage Z-score has been recorded for this entry: CASDGSWSTVAGNASASA [HC1361]
1.47
